# Test: Ratio of drug level in brain to plasma in diet induced obese C57BL/6J mouse after 6 hrs
# Type: ADME
# Experimental context: brain and plasma, read-out: BPR
Assay metric: Kp at 6 h
Keep it simple and answer with nothing but the number.

Query block: Answer with the recorded Kp at 6 h for the compound listed here: `O=c1cc(OCc2ccccc2)ccn1-c1ccc2c(cnn2CCN2CCCC2)c1`
Result block: 0.7

----------
# Test: in vitro
# Experimental context: mouse, liver microsomes
# Description: Metabolic stability in mouse liver microsomes assessed as half life
For each entry below, report its half-life value.
The reply must contain the numeric value and, after it, the unit.

Query block: For the compound `O=c1cc(-c2ccc(C(F)(F)F)cc2)ccn1-c1ccc2c(cnn2CCN2CCCC2)c1` , report half-life.
Result block: 3.12 h

Query block: Report half-life for CN1CCN(CCCN(C(=O)Nc2ccc(F)c(C(F)(F)F)c2)C2CCC3(c4ccc(C#N)cc4)CC23)CC1 (centres undefined)
Result block: 9.57 h

Query block: Output measured half-life for this item: `O=c1cc(-c2ccc(Cl)cc2Cl)ccn1-c1ccc2c(cnn2CCN2CCCC2)c1`
Result block: 2.27 h

Query block: Assign half-life to the following record: `COc1cc(-n2cnc3cc(-c4ccc(Cl)cc4)sc3c2=O)ccc1OCCN1CCCC1`
Result block: 9.57 h
